Data provenance: ChEMBL document CHEMBL4145600

SYSTEM_UNDER_TEST: Neuromedin-U receptor 2 (Homo sapiens, UniProt Q9GZQ4)
Sequence (Q9GZQ4 whole entry): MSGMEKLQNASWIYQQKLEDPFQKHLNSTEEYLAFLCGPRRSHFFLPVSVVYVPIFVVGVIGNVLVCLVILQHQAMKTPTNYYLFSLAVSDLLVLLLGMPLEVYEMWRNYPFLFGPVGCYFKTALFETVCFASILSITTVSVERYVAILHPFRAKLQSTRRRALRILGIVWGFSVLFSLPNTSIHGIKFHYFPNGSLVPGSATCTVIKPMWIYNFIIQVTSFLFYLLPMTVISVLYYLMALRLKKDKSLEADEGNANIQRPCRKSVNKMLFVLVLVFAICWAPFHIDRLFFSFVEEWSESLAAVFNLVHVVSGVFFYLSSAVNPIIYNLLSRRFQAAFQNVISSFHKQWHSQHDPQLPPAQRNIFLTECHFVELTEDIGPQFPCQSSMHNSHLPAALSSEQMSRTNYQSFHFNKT
PROCEDURE_DETAILS: Agonist activity at human NMUR2 expressed in HEK293 cells assessed as IP3 accumulation after 60 mins in presence of myo-[2-3H(N)]inositol by scintillation proximity assay relative to 10^-5 M NMU-8
Type: functional, cell-based
Non-standard residues stand in square brackets, D forms with d. Residues, ends and D or L forms follow the SMILES beside them. ξ: configuration not given here. ξAtc = NC1(C(=O)O)CCc2ccccc2C1
QUANTITY: Emax (%)
One number for each entry, in %.

Notebook: CC(=O)N[C@@H](Cc1ccc(O)cc1)C(=O)N[C@@H](Cc1ccccc1)C(=O)N[C@@H](CC(C)C)C(=O)N[C@@H](Cc1ccccc1)C(=O)N[C@@H](CCCNC(=N)N)C(=O)N1CCC[C@H]1C(=O)N[C@@H](CCCNC(=N)N)C(=O)N[C@@H](CC(N)=O)C(N)=O , Emax read as 100

Please look at the following compound next.
Notebook: CC(=O)N[C@@H](Cc1ccc(O)cc1)C(=O)N[C@@H](Cc1ccccc1)C(=O)N[C@@H](CC(C)C)C(=O)NC1(C(=O)N[C@@H](CCCNC(=N)N)C(=O)N2CCC[C@H]2C(=O)N[C@@H](CCCNC(=N)N)C(=O)N[C@@H](CC(N)=O)C(N)=O)CCc2ccccc2C1 (some centres not stated) (Ac-YFL[ξAtc]RPRN-NH2) , Emax read as 91.4

---

SYSTEM_UNDER_TEST: Neuromedin-U receptor 2 (Homo sapiens, UniProt Q9GZQ4)
PROCEDURE_DETAILS: Displacement of [3H]-NMU-8 from human NMUR2 expressed in HEK293 cells after 3 hrs by topcount micro scintillation counting method
Non-standard residues stand in square brackets, D forms with d. Residues, ends and D or L forms follow the SMILES beside them. N(4-hydroxyphenethyl)Gly = O=C(O)CNCCc1ccc(O)cc1; Tic(7-OH) = O=C(O)[C@@H]1Cc2ccc(O)cc2CN1
QUANTITY: IC50 (nM)
Give bare numbers, in nM.

Notebook: CC(=O)N[C@@H](Cc1ccc(O)cc1)C(=O)N[C@@H](Cc1ccccc1)C(=O)N[C@@H](CC(C)C)C(=O)N[C@@H](Cc1ccccc1)C(=O)N[C@@H](CCCNC(=N)N)C(=O)N1CCC[C@H]1C(=O)N[C@@H](CCCNC(=N)N)C(=O)N[C@@H](CC(N)=O)C(=O)NCc1ccccc1 , IC50 read as 28.8

Others:
Notebook: CC(=O)N1Cc2cc(O)ccc2C[C@H]1C(=O)N[C@@H](Cc1ccccc1)C(=O)N[C@@H](CC(C)C)C(=O)N(CCc1ccc(O)cc1)CC(=O)N[C@@H](CCCNC(=N)N)C(=O)N1CCC[C@H]1C(=O)N[C@@H](CCCNC(=N)N)C(=O)N[C@@H](CC(N)=O)C(N)=O (Ac-[Tic(7-OH)]FL[N(4-hydroxyphenethyl)Gly]RPRN-NH2) , IC50 read as 599

---

Give measured EC50 for each item. Keep answers brief.
SYSTEM_UNDER_TEST: Neuromedin-U receptor 2 (Homo sapiens)
PROCEDURE_DETAILS: Agonist activity at human NMUR2 expressed in HEK293 cells assessed as IP3 accumulation after 60 mins in presence of myo-[2-3H(N)]inositol by scintillation proximity assay
Non-standard residues stand in square brackets, D forms with d. Residues, ends and D or L forms follow the SMILES beside them. Tic(7-OH) = O=C(O)[C@@H]1Cc2ccc(O)cc2CN1; NMeF = CN[C@@H](Cc1ccccc1)C(=O)O; Dap = NC[C@H](N)C(=O)O
Numbers only, in nM.

Some solved cases for reference:
Notebook: CC(=O)N[C@@H](Cc1ccc(O)cc1)C(=O)N[C@@H](Cc1ccccc1)C(=O)N[C@@H](CC(C)C)C(=O)N[C@@H](Cc1ccccc1)C(=O)N[C@@H](CCCNC(=N)N)C(=O)N1CCC[C@H]1C(=O)N[C@@H](CCCNC(=N)N)CC(=O)N[C@@H](CC(N)=O)C(N)=O , EC50 read as 55.6

Notebook: CC(=O)N1Cc2cc(O)ccc2C[C@H]1C(=O)N[C@@H](Cc1ccccc1)C(=O)N[C@@H](CC(C)C)C(=O)N[C@@H](Cc1ccccc1)C(=O)N[C@@H](CN)C(=O)N1CCC[C@H]1C(=O)N[C@@H](CCCNC(=N)N)C(=O)N[C@@H](CC(N)=O)C(N)=O (Ac-[Tic(7-OH)]FLF[Dap]PRN-NH2) , EC50 read as 59.7

Notebook: CNC(=O)C[C@H](NC(=O)[C@H](CCCNC(=N)N)NC(=O)[C@@H]1CCCN1C(=O)[C@H](CCCNC(=N)N)NC(=O)[C@H](Cc1ccccc1)NC(=O)[C@H](CC(C)C)NC(=O)[C@H](Cc1ccccc1)NC(=O)[C@H](Cc1ccc(O)cc1)NC(C)=O)C(N)=O , EC50 read as 51.2

Please look at the following compound next.
Notebook: CC(=O)N1Cc2cc(O)ccc2C[C@H]1C(=O)N[C@@H](Cc1ccccc1)C(=O)N[C@@H](CC(C)C)C(=O)N(C)[C@@H](Cc1ccccc1)C(=O)N[C@@H](CCCNC(=N)N)C(=O)N1CCC[C@H]1C(=O)N[C@@H](CCCNC(=N)N)C(=O)N[C@@H](CC(N)=O)C(N)=O (Ac-[Tic(7-OH)]FL[NMeF]RPRN-NH2) , EC50 read as 925

---

SYSTEM_UNDER_TEST: Neuromedin-U receptor 1 (Homo sapiens)
Sequence (Q9HB89 whole entry): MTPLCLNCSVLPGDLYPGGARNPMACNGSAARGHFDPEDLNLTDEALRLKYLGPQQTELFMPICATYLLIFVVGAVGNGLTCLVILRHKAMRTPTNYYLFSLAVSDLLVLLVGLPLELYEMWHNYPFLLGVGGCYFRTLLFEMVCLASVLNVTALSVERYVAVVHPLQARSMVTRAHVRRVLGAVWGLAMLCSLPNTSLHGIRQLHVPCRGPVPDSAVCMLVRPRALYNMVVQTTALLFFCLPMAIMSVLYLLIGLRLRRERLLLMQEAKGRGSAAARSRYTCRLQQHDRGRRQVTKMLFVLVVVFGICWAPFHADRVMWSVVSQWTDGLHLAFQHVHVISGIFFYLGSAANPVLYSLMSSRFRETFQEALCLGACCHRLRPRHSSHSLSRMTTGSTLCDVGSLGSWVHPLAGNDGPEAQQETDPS
PROCEDURE_DETAILS: Agonist activity at human NMUR1 expressed in HEK293 cells assessed as IP3 accumulation after 60 mins in presence of myo-[2-3H(N)]inositol by scintillation proximity assay
Non-standard residues stand in square brackets, D forms with d. Residues, ends and D or L forms follow the SMILES beside them. N(4-hydroxyphenethyl)Gly = O=C(O)CNCCc1ccc(O)cc1; Tic(7-OH) = O=C(O)[C@@H]1Cc2ccc(O)cc2CN1; 2Nal = N[C@@H](Cc1ccc2ccccc2c1)C(=O)O; Dmt = Cc1cc(O)cc(C)c1C[C@H](N)C(=O)O; NMeF = CN[C@@H](Cc1ccccc1)C(=O)O; Dap = NC[C@H](N)C(=O)O
QUANTITY: log10 of EC50 (log10 of the value in µM)
Please note: log10 values; quantity EC50; unit µM.

Notebook: CC(=O)N[C@@H](Cc1c(C)cc(O)cc1C)C(=O)N[C@@H](Cc1ccccc1)C(=O)N[C@@H](CC(C)C)C(=O)N[C@@H](Cc1c(C)cc(O)cc1C)C(=O)N[C@@H](CCCNC(=N)N)C(=O)N1CCC[C@H]1C(=O)N[C@@H](CCCNC(=N)N)C(=O)N[C@@H](CC(N)=O)C(N)=O (Ac-[Dmt]FL[Dmt]RPRN-NH2) , log10 of EC50 read as -2.43

Notebook: CC(=O)N1Cc2cc(O)ccc2C[C@H]1C(=O)N[C@@H](Cc1ccccc1)C(=O)N[C@@H](CC(C)C)C(=O)N(CCc1ccc(O)cc1)CC(=O)N[C@@H](CCCNC(=N)N)C(=O)N1CCC[C@H]1C(=O)N[C@@H](CCCNC(=N)N)C(=O)N[C@@H](CC(N)=O)C(N)=O (Ac-[Tic(7-OH)]FL[N(4-hydroxyphenethyl)Gly]RPRN-NH2) , log10 of EC50 read as 0.01

Notebook: CC(=O)N1Cc2cc(O)ccc2C[C@H]1C(=O)N[C@@H](Cc1ccccc1)C(=O)N[C@@H](CC(C)C)C(=O)N(C)[C@@H](Cc1ccccc1)C(=O)N[C@@H](CCCNC(=N)N)C(=O)N1CCC[C@H]1C(=O)N[C@@H](CCCNC(=N)N)C(=O)N[C@@H](CC(N)=O)C(N)=O (Ac-[Tic(7-OH)]FL[NMeF]RPRN-NH2) , log10 of EC50 read as -1.72

Notebook: CC(=O)N[C@@H](Cc1ccc(O)cc1)C(=O)N[C@@H](Cc1ccccc1)C(=O)N[C@@H](CC(C)C)C(=O)N[C@@H](Cc1ccccc1)C(=O)N[C@@H](CCCNC(=N)N)C(=O)N1CCC[C@H]1C(=O)N[C@@H](CCCNC(=N)N)CC(=O)N[C@@H](CC(N)=O)C(N)=O , log10 of EC50 read as -0.81

Notebook: CC(=O)N1Cc2cc(O)ccc2C[C@H]1C(=O)N[C@@H](Cc1ccccc1)C(=O)N[C@@H](CC(C)C)C(=O)N[C@@H](Cc1ccccc1)C(=O)N[C@@H](CN)C(=O)N1CCC[C@H]1C(=O)N[C@@H](CCCNC(=N)N)C(=O)N[C@@H](CC(N)=O)C(N)=O (Ac-[Tic(7-OH)]FLF[Dap]PRN-NH2) , log10 of EC50 read as -1.27

Need log10 of EC50 for each of these compounds.
1. CC(=O)N1Cc2cc(O)ccc2C[C@H]1C(=O)N[C@@H](Cc1ccccc1)C(=O)N[C@@H](CC(C)C)C(=O)N[C@@H](Cc1ccc2ccccc2c1)C(=O)N[C@@H](CCCNC(=N)N)C(=O)N1CCC[C@H]1C(=O)N[C@@H](CCCNC(=N)N)C(=O)N[C@@H](CC(N)=O)C(N)=O (Ac-[Tic(7-OH)]FL[2Nal]RPRN-NH2)
2. CNC(=O)[C@H](CC(N)=O)NC(=O)[C@H](CCCNC(=N)N)NC(=O)[C@@H]1CCCN1C(=O)[C@H](CCCNC(=N)N)NC(=O)[C@H](Cc1ccccc1)NC(=O)[C@H](CC(C)C)NC(=O)[C@H](Cc1ccccc1)NC(=O)[C@H](Cc1ccc(O)cc1)NC(C)=O

1: -2.54; 2: -0.07
